target.system: horse reddish butyrylcholinesterase (BChE, EC 3.1.1.8) (Equus caballus, UniProt P81908)
Sequence (P81908 whole entry): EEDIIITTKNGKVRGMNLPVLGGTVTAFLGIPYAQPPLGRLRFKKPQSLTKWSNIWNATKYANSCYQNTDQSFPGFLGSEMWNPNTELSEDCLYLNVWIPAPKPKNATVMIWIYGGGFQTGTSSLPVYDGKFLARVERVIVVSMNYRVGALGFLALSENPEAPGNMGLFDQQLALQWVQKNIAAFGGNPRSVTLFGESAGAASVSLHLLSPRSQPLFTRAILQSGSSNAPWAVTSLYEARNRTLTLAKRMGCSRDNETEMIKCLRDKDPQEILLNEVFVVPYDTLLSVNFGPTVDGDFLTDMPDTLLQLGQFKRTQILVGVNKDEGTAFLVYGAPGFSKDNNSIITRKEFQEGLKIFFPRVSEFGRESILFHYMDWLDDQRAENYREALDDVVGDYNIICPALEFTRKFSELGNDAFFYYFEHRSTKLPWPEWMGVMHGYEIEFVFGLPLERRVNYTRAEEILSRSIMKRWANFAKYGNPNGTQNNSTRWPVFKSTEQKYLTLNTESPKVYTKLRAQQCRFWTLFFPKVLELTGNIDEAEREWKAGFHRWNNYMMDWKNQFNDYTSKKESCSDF
observed.property: Ki (µM)
// units = µM; emit number, no label

IN: Notebook entry, horse reddish butyrylcholinesterase (BChE, EC 3.1.1.8) (Equus caballus, UniProt P81908) assay: Ki of O=S(=O)(N/N=C/c1ccccc1O)c1ccc(OC(F)(F)F)cc1 = ?
OUT: 41.7

* * *

target.system: electric eel acetylcholinesterase (AChE, Type–VI-S, EC 3.1.1.7) (Electrophorus electricus, UniProt O42275)
Construct: purchased Type–VI-S
Sequence (O42275 24-633): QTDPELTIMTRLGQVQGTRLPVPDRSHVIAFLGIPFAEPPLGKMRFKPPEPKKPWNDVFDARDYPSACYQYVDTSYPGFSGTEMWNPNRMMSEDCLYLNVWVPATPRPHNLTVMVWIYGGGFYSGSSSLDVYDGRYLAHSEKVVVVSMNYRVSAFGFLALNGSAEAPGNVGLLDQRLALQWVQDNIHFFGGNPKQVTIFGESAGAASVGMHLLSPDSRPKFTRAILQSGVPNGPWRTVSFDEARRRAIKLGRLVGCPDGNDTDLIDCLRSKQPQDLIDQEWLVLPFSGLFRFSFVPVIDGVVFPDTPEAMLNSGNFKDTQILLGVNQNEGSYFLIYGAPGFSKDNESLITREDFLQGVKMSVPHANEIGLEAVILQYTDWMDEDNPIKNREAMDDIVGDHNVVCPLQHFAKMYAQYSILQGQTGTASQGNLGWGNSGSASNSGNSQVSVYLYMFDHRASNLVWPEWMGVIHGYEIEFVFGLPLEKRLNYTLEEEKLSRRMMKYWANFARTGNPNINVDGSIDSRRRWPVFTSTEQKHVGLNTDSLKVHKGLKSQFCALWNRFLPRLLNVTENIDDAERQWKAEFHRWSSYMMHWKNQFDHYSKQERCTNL
method: biochemical
recorded.conditions: mean ± SEM of three parallel measurements
observed.property: IC50 (µM)
// units = µM; emit number, no label

IN: GET /values?readout=IC50&item= O=S(=O)(N/N=C/c1ccccc1O)c1ccc(C(F)(F)F)cc1
OUT: 68.7

IN: GET /values?readout=IC50&item= O=S(=O)(N/N=C/c1ccccc1O)c1ccccc1OC(F)(F)F
OUT: 53.1

IN: GET /values?readout=IC50&item= O=S(=O)(N/N=C/c1ccccc1O)c1ccccc1C(F)(F)F
OUT: 91.8

IN: GET /values?readout=IC50&item= O=S(=O)(N/N=C/c1ccccc1O)c1cccc(OC(F)(F)F)c1
OUT: 80.3

IN: GET /values?readout=IC50&item= O=S(=O)(N/N=C/c1ccccc1O)c1ccc(F)cc1
OUT: 117

IN: GET /values?readout=IC50&item= O=S(=O)(N/N=C/c1ccccc1O)c1ccc(OC(F)(F)F)cc1
OUT: 29.1

IN: GET /values?readout=IC50&item= O=S(=O)(N/N=C/c1ccccc1O)c1cccc(C(F)(F)F)c1
OUT: 104

* * *

target.system: horse reddish butyrylcholinesterase (BChE, EC 3.1.1.8) (Equus caballus)
method: biochemical
recorded.conditions: mean ± SEM of three parallel measurements
Hi! Could you tag entries with IC50 below 90 µM as satisfied, and those at or above as not satisfied? Much appreciated.

IN: Is it true that IC50 reported for O=S(=O)(N/N=C/c1ccccc1O)c1cccc(OC(F)(F)F)c1 is less than 90 µM?
OUT: satisfied

IN: Is it true that IC50 reported for O=S(=O)(N/N=C/c1ccccc1O)c1ccc(C(F)(F)F)cc1 is less than 90 µM?
OUT: satisfied

IN: Is it true that IC50 reported for O=S(=O)(N/N=C/c1ccccc1O)c1ccc(OC(F)(F)F)cc1 is less than 90 µM?
OUT: satisfied

IN: Is it true that IC50 reported for O=S(=O)(N/N=C/c1ccccc1O)c1ccccc1C(F)(F)F is less than 90 µM?
OUT: not satisfied

IN: Is it true that IC50 reported for O=S(=O)(N/N=C/c1ccccc1O)c1ccc(F)cc1 is less than 90 µM?
OUT: not satisfied
